biological target: human recombinant PAK1-KD protein (Homo sapiens); assay: PAK1-KD (Kinase Domain) IC50 Zlyte Assay (FRET peptide substrate phosphorylation); conditions: Z'-LYTE, Biological Example 1
measurementType: Ki (nM)

Look over these answered cases.
# compound, Ki, nM
measured = [
    ("CCNc1ncc2cc(-c3ccc(-c4ncccc4C)cc3Cl)c(=O)n(C[C@H]3CC[C@H](N)CC3)c2n1", 7.2),
    ("CNc1ncc2cc(-c3ccc(-c4cccc(C)n4)cc3Cl)c(=O)n(CC[C@H]3OC[C@@H](N)CO3)c2n1", 3.45),
]

I. CCNc1ncc2cc(-c3ccc(-c4cccc(C)n4)cc3Cl)c(=O)n(C3COC4(CCNC4)C3)c2n1 (stereo not shown)
II. Cc1cccc(-c2ccc(-c3cc4cnc(NC5COC5)nc4n(CCCCO)c3=O)c(C)c2)n1
input: Could you kindly indicate whether I or II has the higher Ki value? # answer = label of selected item
output: II

----------
test system: group I PAKs in EBC1 cells (MEK1 phosphorylation at S298); assay: Cellular PAK IC50 Assay: MEK1 phosphorylation at S298 by HTRF; type: cell-based; settings: Homo sapiens, EBC-1, 2 h treatment, media containing 0.1% FBS, phospho-MEK1 (S298) HTRF
pIC50: −log10 of the molar value.
measurementType: pIC50

# molecule, pIC50
measured = [
    ("CCNc1ncc2cc(-c3ccc(-c4cccc(C)n4)cc3C)c(=O)n(CCOC3CNC3)c2n1 [Example I-31]", 6.90),
]

1. Cc1cccc(-c2ccc(-c3cc4cnc(NCC(F)F)nc4n(CCN4CCNCC4)c3=O)c(Cl)c2)n1 [Example I-89]
2. CCNc1ncc2cc(-c3ccc(-c4cncc(C)n4)cc3Cl)c(=O)n(C[C@H]3CC[C@H](NC)CC3)c2n1 [Example I-17]
3. CCNc1ncc2cc(-c3ccc(-c4cncc(C)n4)cc3Cl)c(=O)n(CC3CCNCC3)c2n1 [Example I-6]
input: Could you please sort these 3 entries by pIC50 from high to low? Quick reminder: the answer is the labels in the order asked.
output: 1, 2, 3
(1: 7.24, 2: 7.02, 3: 6.77)

----------
target: human recombinant PAK1-KD protein (Homo sapiens, UniProt Q13153); experiment: PAK1-KD (Kinase Domain) IC50 Zlyte Assay (FRET peptide substrate phosphorylation); details: Z'-LYTE, Biological Example 1
Sequence (Q13153 270-521 limits assumed): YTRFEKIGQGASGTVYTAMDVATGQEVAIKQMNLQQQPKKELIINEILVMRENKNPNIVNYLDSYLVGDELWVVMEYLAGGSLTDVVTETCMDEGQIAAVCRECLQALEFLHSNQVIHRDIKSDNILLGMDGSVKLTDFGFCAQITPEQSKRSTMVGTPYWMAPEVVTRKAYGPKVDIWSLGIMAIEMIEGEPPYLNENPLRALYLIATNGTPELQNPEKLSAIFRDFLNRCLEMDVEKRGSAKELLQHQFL
pKi: −log10 of the molar value.
measurementType: pKi

Look over these answered cases.
# compound, measurementType, numericValue
records = [
    ("Cc1cncc(-c2ccc(-c3cc4cnc(NC5COC5)nc4n(C[C@@H]4CNCCO4)c3=O)c(Cl)c2)n1", "pKi", 8.05),
    ("Cc1cncc(-c2ccc(-c3cc4cnc(NC5COC5)nc4n(CCOCCO)c3=O)c(Cl)c2)n1", "pKi", 7.11),
    ("CCNc1ncc2cc(-c3ccc(-c4cccc(C)n4)cc3Cl)c(=O)n(CCS(=O)(=O)C3CNC3)c2n1", "pKi", 7.99),
    ("CNc1ncc2cc(-c3ccc(-c4cccc(C)n4)cc3C)c(=O)n(C[C@H]3OC[C@H](N)CO3)c2n1", "pKi", 8.28),
    ("Cc1cccc(-c2ccc(-c3cc4cnc(N)nc4n(CCC4CNCCO4)c3=O)c(Cl)c2)n1 (racemic)", "pKi", 8.42),
]

P. CCNc1ncc2cc(-c3ccc(-c4cncc(C)n4)cc3Cl)c(=O)n(CC(C)OC3CNC3)c2n1 (single isomer, unassigned) [Example I-91]
Q. Cc1cccc(-c2ccc(-c3cc4cnc(N)nc4n(CCCN)c3=O)c(C)c2)n1
input: Lower pKi: P or Q ? # answer = label of selected item
output: Q

I. CCc1cc(-c2cncc(C)n2)ccc1-c1cc2cnc(NC)nc2n(CCOCCN)c1=O
II. CCNc1ncc2cc(-c3ccc(-c4cncc(C)n4)cc3Cl)c(=O)n(CCOC3CCNC3)c2n1 (single isomer, unassigned) [Example I-51]
III. CNc1ncc2cc(-c3ccc(-c4cccc(C)n4)cc3Cl)c(=O)n(CC[C@H]3OC[C@H](N)CO3)c2n1
IV. CCNc1ncc2cc(-c3ccc(-c4cncc(C)n4)cc3Cl)c(=O)n(CCN3CCN(C4COC4)CC3)c2n1
input: Sort the compounds on pKi; start with the lowest figure. Quick reminder: the answer is the labels in the order asked.
output: IV, I, II, III
(IV: 6.87, I: 7.56, II: 7.88, III: 9.04)

I. Cc1cncc(-c2ccc(-c3cc4cnc(NC5(C)COC5)nc4n(CCCC(N)=O)c3=O)c(Cl)c2)n1
II. Cc1cccc(-c2ccc(-c3cc4cnc(NC(C)C)nc4n(CCOCCN)c3=O)c(Cl)c2)n1
III. CNc1ncc2cc(-c3ccc(-c4cncc(C)n4)cc3Cl)c(=O)n(CC[C@H]3OC[C@H](N)CO3)c2n1
input: Could you please sort these 3 entries by pKi from high to low? Quick reminder: the answer is the labels in the order asked.
output: II, III, I

----------
target: human recombinant PAK1-KD protein (Homo sapiens); experiment: PAK1-KD (Kinase Domain) IC50 Zlyte Assay (FRET peptide substrate phosphorylation); settings: Z'-LYTE, Biological Example 1
pKi: −log10 of the molar value.
measurementType: pKi

# compound, pKi
records = [
    ("CNc1ncc2cc(-c3ccc(-c4csc(C)n4)cc3Cl)c(=O)n(C[C@@H]3CNCCO3)c2n1 [Example I-179]", 7.18),
    ("CCNc1ncc2cc(-c3ccc(-c4cccc(C)n4)cc3Cl)c(=O)n(CC(=O)N3CCOCC3)c2n1 [Example I-120]", 7.68),
    ("Cc1cccc(-c2ccc(-c3cc4cnc(NC5COC5)nc4n(CCCS(N)(=O)=O)c3=O)c(C)c2)n1 [Example I-161]", 7.66),
    ("CCNc1ncc2cc(-c3ccc(-c4cncc(C)n4)cc3Cl)c(=O)n(CC3(O)CCN(C)CC3)c2n1 [Example I-105]", 6.94),
    ("CNc1ncc2cc(-c3ccc(-c4cncc(C)n4)cc3Cl)c(=O)n(C[C@H]3OC[C@H](N)CO3)c2n1 [Example I-145]", 8.07),
]

a. CNc1ncc2cc(-c3ccc(-c4cncc(C)n4)cc3Cl)c(=O)n(CC(=O)NCCO)c2n1 [Example I-85]
b. CNc1ncc2cc(-c3ccc(-c4cncc(C)n4)cc3Cl)c(=O)n(CC(=O)N3CC[C@@H](N)C3)c2n1 [Example I-152]
c. Cc1cccc(-c2ccc(-c3cc4cnc(NCC(F)F)nc4n(CCN4CCNCC4)c3=O)c(Cl)c2)n1 [Example I-89]
input: Sort the compounds on pKi; start with the lowest figure. Quick reminder: the answer is the labels in the order asked.
output: a, b, c

----------
molecular target: human recombinant PAK1-KD protein (Homo sapiens, UniProt Q13153); assay: PAK1-KD (Kinase Domain) IC50 Zlyte Assay (FRET peptide substrate phosphorylation); conditions: Z'-LYTE, Biological Example 1
pKi: −log10 of the molar value.
measurementType: pKi

# molecule, numericValue
records = [
    ("CCNc1ncc2cc(-c3ccc(-c4cncc(C)n4)cc3Cl)c(=O)n(CCC3CCCN3)c2n1 (single isomer, unassigned) [Example I-20]", 7.69),
    ("CCNc1ncc2cc(-c3ccc(-c4cccc(C)n4)cc3Cl)c(=O)n(CC3CCNCC3)c2n1", 8.34),
    ("CNc1ncc2cc(-c3ccc(-c4csc(C5CC5)n4)cc3Cl)c(=O)n(C[C@@H]3CNCCO3)c2n1", 7.37),
]

I. Cc1cccc(-c2ccc(-c3cc4cnc(NC5COC5)nc4n(CC[C@H]4OC[C@@H](N)CO4)c3=O)c(Cl)c2)n1 [Example I-135]
II. CNc1ncc2cc(-c3ccc(-c4cccc(C)n4)cc3Cl)c(=O)n(CCC3(C#N)CCNC3)c2n1 (stereo not drawn)
input: Lower pKi: I or II ? # answer = label of selected item
output: II
(II: 8.55, I: 9.18)

----------
target: human recombinant PAK1-KD protein (Homo sapiens); assay: PAK1-KD (Kinase Domain) IC50 Zlyte Assay (FRET peptide substrate phosphorylation); settings: Z'-LYTE, Biological Example 1
measurementType: Ki (nM)

Look over these answered cases.
# compound, numericValue
data = [
    ("Cc1cccc(-c2ccc(-c3cc4cnc(NC5COC5)nc4n(C[C@H]4CC[C@H](N)CC4)c3=O)c(Cl)c2)n1", 0.5),
    ("CNc1ncc2cc(-c3ccc(-c4cncc(C)n4)cc3Cl)c(=O)n(C3CCS(=N)(=O)CC3)c2n1 (stereo not shown)", 110),
    ("Cc1cncc(-c2ccc(-c3cc4cnc(NC5COC5)nc4n(C[C@H]4OC[C@H](N)CO4)c3=O)c(Cl)c2)n1", 9.9),
    ("CCNc1ncc2cc(-c3ccc(-c4cncc(C)n4)cc3Cl)c(=O)n(CCC(O)CO)c2n1 (stereo in doubt)", 43.5),
]

1. CCNc1ncc2cc(-c3ccc(-c4cncc(C)n4)cc3Cl)c(=O)n(CCC3CCNC3)c2n1 (stereo not shown)
2. CNC(=O)CCCn1c(=O)c(-c2ccc(-c3cccc(C)n3)cc2C)cc2cnc(NC3COC3)nc21
3. CNc1ncc2cc(-c3ccc(-c4cccc(C)n4)cc3C)c(=O)n(CCS(=O)(=O)CCN)c2n1
input: Could you please sort these 3 entries by Ki from high to low? Quick reminder: the answer is the labels in the order asked.
output: 2, 3, 1
